# targetUnderTest: T1, T8 (Tn-MUC1) (PAPGST(α-GalNAc)APPAHGVTSAPDT(α-GalNAc)RPAPG-OH)
# T1 peptide: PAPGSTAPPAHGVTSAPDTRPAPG
# methodSummary: glycopeptide array
// values below are reported EC50
Kindly provide the numeric value in µg/mL only, without the unit symbol.

Worked examples follow.
202 (antibody, V domains shown) VH: QVQLVQSGAEVKNPGASVKFSCKASGYTFINYYLQWLRQAPGQGLEWMGTINPFDGSTSYAQNFQGRVTMTRDTSSTTVYMELNSLKSEDTAVYYCARDSMIGYVLFDSWGQGTLVTVSS: 0.125
118 (antibody, V domains shown) VH: QVQLVQSGAEVKKPGASVKVSCKASGYTFTNYYIQWVRQAPGQGLEWMGVINPYDGSTNYAQRFQGKITLTRDTSTTTVYMELSSLGSEDTAVYYCARDYMIGYVVFDYWGQGTMVTVSS: 0.142
194 (antibody, V domains shown) VH: QVQLVQSGAEVKKPGTSVKVSCTASGYTFTNYYIQWVRQAPGQGLEWLGVINPYDGSTDYAQKFQGRVTLTRDTSTTTVYMELSSLRSEDTAVYYCARDYMLGYVVFDFWGQGTLVTVSS: 0.099
98 (antibody, V domains shown) VH: QVQLVQSGAEVKKPGASVKVSCKASGYTFTSYYIQWLRQAPGQGLEWMGVINPTGGATNYAQKFQGRVTMTRETSTSMVHMELSSLRSEDTAVYYCARDYMRGYVVFDYWGQGTLVTVSS: 0.263
114 (antibody, V domains shown) VH: QVQLVQSGAEMKKPGASVTVSCKASGYTFTNYYIQWVRQAPGQGLEWMGVINPYDGSTNYAQRFQGRVTLTRDTTTTTVNMELSGLRSEDTAVYYCARDYMIGYVVFDFWGQGTLVTVSS: 0.085

## Input Input 90 (antibody, V domains shown) VH: QVQLVQSGAEVKKPGASVKVSCKASGYTFINHYIHWVRQAPGQGLEWMGVINPFDGSTNYAQKFQGRVTVTRDTSTSTVFLDLSSLRSEDTAVYYCARDNMIGYVLFDYWGQGTLVTVSS , output reported EC50.
## Output 0.12

## Input Input 74 (antibody, V domains shown) VH: QVQLVQSGAEVKKPGASVQVSCKASGYTFINYYLQWVRQAPGQGLEWMGTINPFDGSTHYEQNFQGRVTMTRDTSTNTVYMELNGLRSEDTAVYYCARDHMIGYILFDYWGQGTTVTVSS , output reported EC50.
## Output 0.118

## Input Input 94 (antibody, V domains shown) VH: QVQLVQSGAEVKKPGSSVKVSCKASGYTFNSYYIHWVRQAPGQGLTWMGVINPFDGSTDYAQKFQGRVTMTRDTSTSTVYMDLSSLRSEDTAVYYCARDYMRGYVVFDYWGRGTLVTVSS , output reported EC50.
## Output 0.033
